System: Candida albicans
Assay: Antifungal activity against Candida albicans isolate 490 harboring ERG3 D147G, T330A, A351V and ERG11 F72S, T229A, E266D, N440S, V488I, R523G mutant genes by broth microdilution method
Type: functional
recorded.endpoint: MIC

# lookup: MIC of CC(=O)N1CCN(c2ccc(OCC3COC(Cn4ccnc4)(c4ccc(Cl)cc4Cl)O3)cc2)CC1 (stereo unspecified)
8 µg/mL

So what's the measured MIC for this one? C[C@@H](c1ncncc1F)[C@](O)(Cn1cncn1)c1ccc(F)cc1F
> 16 µg/mL

Param item = C[C@@H]1[C@H](O)[C@@H](C)/C=C/C=C/C=C/C=C/C=C/C=C/C=C/[C@H](O[C@@H]2O[C@H](C)[C@@H](O)[C@H](N)[C@@H]2O)C[C@@H]2O[C@](O)(C[C@@H](O)C[C@@H](O)[C@H](O)CC[C@@H](O)C[C@@H](O)CC(=O)O[C@H]1C)C[C@H](O)[C@H]2C(=O)O ; retrieve measured MIC.
0.25 µg/mL

Sample OC(Cn1cncn1)(Cn1cncn1)c1ccc(F)cc1F — what was its MIC?
> 256 µg/mL

Which value of MIC has been reported for CCC(C)n1ncn(-c2ccc(N3CCN(c4ccc(OCC5COC(Cn6cncn6)(c6ccc(Cl)cc6Cl)O5)cc4)CC3)cc2)c1=O (stereo unspecified) in the records?
> 16 µg/mL

Fill blank: measured MIC of the molecule Clc1ccccc1C(c1ccccc1)(c1ccccc1)n1ccnc1 is ____.
1 µg/mL
